// provenance: patent US20070191627A1

Below, each of the compounds is paired with its reported IC50 value.
assayed.system: COX 1 (Homo sapiens, UniProt P23219)
Construct: purchased IBL Products Company, Hamburg, Germany
Sequence (P23219 24-599): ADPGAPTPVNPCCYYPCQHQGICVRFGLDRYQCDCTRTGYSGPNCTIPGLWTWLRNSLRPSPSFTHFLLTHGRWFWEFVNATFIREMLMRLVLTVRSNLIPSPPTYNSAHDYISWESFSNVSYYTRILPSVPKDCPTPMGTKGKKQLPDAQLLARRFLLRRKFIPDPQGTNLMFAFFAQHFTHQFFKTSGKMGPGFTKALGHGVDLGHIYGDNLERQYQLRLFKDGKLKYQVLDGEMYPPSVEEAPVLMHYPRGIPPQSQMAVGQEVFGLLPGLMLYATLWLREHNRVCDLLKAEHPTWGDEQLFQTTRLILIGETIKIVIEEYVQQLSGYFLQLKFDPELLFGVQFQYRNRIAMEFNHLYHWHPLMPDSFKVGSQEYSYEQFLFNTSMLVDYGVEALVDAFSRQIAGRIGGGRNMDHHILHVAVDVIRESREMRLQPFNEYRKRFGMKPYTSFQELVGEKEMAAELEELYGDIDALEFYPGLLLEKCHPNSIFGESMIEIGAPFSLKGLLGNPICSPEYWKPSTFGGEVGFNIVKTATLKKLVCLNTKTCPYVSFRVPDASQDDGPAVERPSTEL
protocol.text: COX (human) inhibitor screening assay, COX 1
Type: biochemical
reported.endpoint: IC50 (µM)

* Oc1cc(O)cc(C=Cc2ccc(O)c(O)c2)c1 [M10, 3,3′,4′,5-Tetrahydroxystilbene] | 5
* Oc1cc(O)cc(C=Cc2cc(O)c(O)c(O)c2)c1 [M7, 3,3′,4,5,5′-Pentahydroxystilbene] | 0.01
* Oc1ccc(C=Cc2cc(O)c(O)c(O)c2)cc1 [M9, 3,4,4′,5-Tetrahydroxystilbene] | 5
* COc1cc(C=Cc2cc(OC)c(OC)c(OC)c2)cc(OC)c1OC | 10
* Oc1cc(C=Cc2cc(O)c(O)c(O)c2)cc(O)c1O [M8, 3,3′,4,4′,5,5′-Hexahydroxystilbene] | 0.5
* COc1cc(C=Cc2cc(OC)c(OC)c(OC)c2)cc(OC)c1 | 10
* Oc1cc(O)cc(C=Cc2cc(O)cc(O)c2)c1 [M6, 3,3′,5,5′-Tetrahydroxystilbene] | 0.01
